Tested on: Rattus norvegicus
Assay: In vivo for DOPA accumulation in limbic system against reserpine-pretreated rats.
Type: functional
Lab note - cut at 0.5 µmol/kg for ED50: Met if strictly below, Not met if not.

1) CCCN(CCC)[C@@H]1CCc2ccc3[nH]ccc3c2C1 :: Met
2) CCCN(CCC)C1CCc2ccc3[nH]cc(C(=O)C(F)(F)F)c3c2C1 (stereo unspecified) :: Not met
3) CCCN(CCC)C1CCc2ccc3[nH]cc(SC)c3c2C1 (stereo unspecified) :: Not met
4) CCCN(CCC)C1CCc2cc(F)c3[nH]ccc3c2C1 (stereo unspecified) :: Not met

----------
Target: 5-hydroxytryptamine receptor 1D (Homo sapiens)
Sequence (P28221 whole entry): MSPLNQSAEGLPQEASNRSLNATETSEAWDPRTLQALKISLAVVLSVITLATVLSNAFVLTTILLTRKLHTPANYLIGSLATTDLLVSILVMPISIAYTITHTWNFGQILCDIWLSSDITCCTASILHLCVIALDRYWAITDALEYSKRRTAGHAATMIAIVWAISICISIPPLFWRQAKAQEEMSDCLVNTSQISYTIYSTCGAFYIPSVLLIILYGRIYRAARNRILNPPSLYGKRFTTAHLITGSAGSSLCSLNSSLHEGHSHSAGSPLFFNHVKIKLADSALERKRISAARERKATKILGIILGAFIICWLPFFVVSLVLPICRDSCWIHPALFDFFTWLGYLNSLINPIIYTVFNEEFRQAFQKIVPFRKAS
Test: Binding affinity against 5-hydroxytryptamine 1D receptor alpha expressed in CHO-K1 cells, using [3H]-5-HT as the radioligand.
Format: cell-based
Settings: read-out: Ki
pKi: −log10 of the molar value.
quantity: pKi

1) CCCN(CCC)[C@H]1CCc2ccc3[nH]cc(C=O)c3c2C1 :: 6.81
2) CCCN(CCC)C1CCc2cc(F)c3[nH]cc(C=O)c3c2C1 (centres undefined) :: 8.34
3) CCCN(CCC)[C@@H]1CCc2ccc3[nH]ccc3c2C1 :: 7.80
4) CCCN(CCC)[C@@H]1CCc2ccc3[nH]cc(C=O)c3c2C1 :: 7.51
5) CCCN(CCC)C1CCc2cc(F)c3c(ccn3C)c2C1 (centres undefined) :: 6.66
6) CCCN(CCC)C1CCc2ccc3[nH]cc(C(C)=O)c3c2C1 (centres undefined) :: 6.97
7) CCCN(CCC)C1CCc2ccc3c(c2C1)CC(=O)N3 (centres undefined) :: 7.59
8) CCCN(CCC)[C@@H]1CCc2ccc3[nH]cc(C#N)c3c2C1 :: 8.17
9) CCCN(CCC)C1CCc2ccc3[nH]cc(Cl)c3c2C1 (centres undefined) :: 7.64
10) CCCN(CCC)C1CCc2ccc3[nH]cc(CC(F)(F)F)c3c2C1 (centres undefined) :: 7.27
11) CCCN(CCC)[C@H]1CCc2cc(F)c3[nH]cc(C=O)c3c2C1 :: 7.47
12) CCCN(CCC)C1CCc2ccc3[nH]cc(C(=O)C(F)(F)F)c3c2C1 (centres undefined) :: 6.95
13) CCCN(CCC)C1CCc2ccc3[nH]cc(S(C)(=O)=O)c3c2C1 (centres undefined) :: 7.28
14) CCCN(CCC)[C@@H]1CCc2cc(F)c3[nH]cc(C=O)c3c2C1 :: 8.36
15) CCCN(CCC)C1CCc2ccc3[nH]cc(C=O)c3c2C1 (centres undefined) :: 6.76
16) CCCN(CCC)[C@H]1CCc2ccc3[nH]ccc3c2C1 :: 6.36
17) CCCN(CCC)C1CCc2ccc3[nH]cc(C)c3c2C1 (centres undefined) :: 7.37
18) CCCN(CCC)C1CCc2cc(F)c3[nH]cc(C#N)c3c2C1 (centres undefined) :: 8.07
19) CCCN(CCC)C1CCc2ccc3[nH]cc(SC)c3c2C1 (centres undefined) :: 7.74

----------
System: Rattus norvegicus
Experiment: Bioavailability in male Sprague-Dawley rats, after the po administration at a dose of 10.0(pmol/g/h)
Type: ADME, organism-based
Conditions: in vivo
Measured AUC, listed per entry for reference.
quantity: AUC (pM ml-1)

1. CN(C)[C@@H]1CCc2ccc3[nH]ccc3c2C1 :: 848
2. CCCN(CCC)C1CCc2cc(F)c3[nH]cc(C#N)c3c2C1 (centres undefined) :: 48
3. CCCN(CCC)[C@@H]1CCc2ccc3[nH]c(C#N)cc3c2C1 :: 2857
4. CN(C)[C@H]1CCc2ccc3[nH]ccc3c2C1 :: 2224

----------
Biological target: UniProtKB P61169
Sequence (P61169 whole entry): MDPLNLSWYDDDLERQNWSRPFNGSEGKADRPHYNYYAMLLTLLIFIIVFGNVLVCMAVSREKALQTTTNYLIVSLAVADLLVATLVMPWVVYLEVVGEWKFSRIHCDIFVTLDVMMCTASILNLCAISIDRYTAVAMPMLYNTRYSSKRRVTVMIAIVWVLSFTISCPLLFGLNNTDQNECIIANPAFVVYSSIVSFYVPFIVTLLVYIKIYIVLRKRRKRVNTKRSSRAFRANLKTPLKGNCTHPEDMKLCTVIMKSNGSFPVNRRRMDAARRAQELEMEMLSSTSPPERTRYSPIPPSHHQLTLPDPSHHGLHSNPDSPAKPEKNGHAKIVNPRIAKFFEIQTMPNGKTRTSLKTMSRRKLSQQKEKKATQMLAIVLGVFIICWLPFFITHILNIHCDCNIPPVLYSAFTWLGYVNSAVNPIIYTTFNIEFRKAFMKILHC
Assay: Binding affinity against Dopamine receptor D2 expressed in CHO-K1 cells, using [3H]U-86170 as the radioligand.
Assay type: cell-based
Binning scheme for Ki: Low = under 20 nM, Medium = from 20 nM up to 200 nM, High = 200 nM and over

1. CCCN(CCC)C1CCc2ccc3[nH]cc(Cl)c3c2C1 (stereo not given) :: Low
2. CCCN(CCC)C1CCc2ccc3[nH]cc(S(C)(=O)=O)c3c2C1 (stereo not given) :: High
3. CCCNC1CCc2cc(F)ccc2C1 (stereo not given) :: Medium
4. CCCN(CCC)C1CCc2cc(F)c3[nH]cc(C=O)c3c2C1 (stereo not given) :: Medium
5. CCCN(CCC)[C@@H]1CCc2ccc3[nH]ccc3c2C1 :: Low
6. CCCN(CCC)C1CCc2cc(F)c3c(c(C=O)cn3C)c2C1 (stereo not given) :: High
7. CCCN(CCC)C1CCc2ccc3[nH]cc(SC)c3c2C1 (stereo not given) :: Medium
8. CCCN(CCC)[C@H]1CCc2ccc3[nH]ccc3c2C1 :: Low
9. CCCN(CCC)C1CCc2ccc3[nH]ccc3c2C1 (stereo not given) :: Low
10. CCCN(CCC)C1CCc2ccc3[nH]cc(C(=O)c4ccccc4)c3c2C1 (stereo not given) :: Medium
11. CCCN(CCC)C1CCc2ccc3[nH]cc(CC(F)(F)F)c3c2C1 (stereo not given) :: Medium
12. CCCN(CCC)[C@H]1CCc2ccc3[nH]cc(C#N)c3c2C1 :: High
13. CCCN(CCC)C1CCc2ccc3[nH]cc(C#N)c3c2C1 (stereo not given) :: Medium
14. CCCN(CCC)[C@@H]1CCc2ccc3[nH]cc(C#N)c3c2C1 :: Medium

----------
Measured Tmax, listed per entry for reference.
Experiment: tmax in hours at a iv dose of 2.0(pmol/g/h).
Assay type: ADME, organism-based
Conditions: in vivo
quantity: Tmax (h)

1) CN(C)[C@H]1CCc2ccc3[nH]ccc3c2C1 :: 2
2) CN(C)[C@@H]1CCc2ccc3[nH]ccc3c2C1 :: 2

----------
Measured pKi, listed per entry for reference.
Molecular target: UniProt:P19020
Sequence (P19020 whole entry): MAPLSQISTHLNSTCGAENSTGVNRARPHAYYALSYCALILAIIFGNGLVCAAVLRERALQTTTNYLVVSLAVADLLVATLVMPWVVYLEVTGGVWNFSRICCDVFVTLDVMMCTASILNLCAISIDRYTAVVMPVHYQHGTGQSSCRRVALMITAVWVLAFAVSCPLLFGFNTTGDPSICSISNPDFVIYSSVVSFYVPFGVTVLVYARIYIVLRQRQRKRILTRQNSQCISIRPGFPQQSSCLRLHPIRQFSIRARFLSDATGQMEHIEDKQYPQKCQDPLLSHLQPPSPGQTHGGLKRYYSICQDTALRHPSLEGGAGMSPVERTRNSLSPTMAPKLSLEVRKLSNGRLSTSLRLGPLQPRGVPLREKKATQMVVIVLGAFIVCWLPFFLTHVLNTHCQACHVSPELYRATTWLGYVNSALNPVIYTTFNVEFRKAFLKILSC
Assay: Binding affinity against Dopamine receptor D3 expressed in CHO-K1 cells, using [3H]spiperone as the radioligand.
Assay type: cell-based
pKi: −log10 of the molar value.
quantity: pKi

1. CCCN(CCC)C1CCc2ccc3[nH]ccc3c2C1 (stereo unspecified) :: 7.43
2. CCCN(CCC)C1CCc2ccc3[nH]cc(C(C)=O)c3c2C1 (stereo unspecified) :: 6.49
3. CCCN(CCC)C1CCc2ccc3[nH]cc(C)c3c2C1 (stereo unspecified) :: 7.17
4. CCCN(CCC)[C@@H]1CCc2ccc3[nH]cc(C#N)c3c2C1 :: 7.35
5. CCCN(CCC)[C@H]1CCc2ccc3[nH]cc(C#N)c3c2C1 :: 6.41
6. CCCN(CCC)C1CCc2ccc3[nH]cc(C#N)c3c2C1 (stereo unspecified) :: 7.37
7. CCCN(CCC)C1CCc2ccc3[nH]cc(SC)c3c2C1 (stereo unspecified) :: 7.26
8. CCCN(CCC)C1CCc2ccc3[nH]cc(Cl)c3c2C1 (stereo unspecified) :: 7.82
9. CCCN(CCC)[C@@H]1CCc2ccc3[nH]ccc3c2C1 :: 7.52
10. CCCN(CCC)C1CCc2ccc3[nH]cc(C(=O)c4ccccc4)c3c2C1 (stereo unspecified) :: 6.97
11. CCCN(CCC)[C@H]1CCc2ccc3[nH]ccc3c2C1 :: 7.66

----------
Assay: Bioavailability in rat plasma following iv/po dose
Format: ADME, organism-based
Measured bioavailability, listed per entry for reference.
quantity: bioavailability (%)

1) CCCN(CCC)C1CCc2cc(F)c3[nH]cc(C#N)c3c2C1 (centres undefined) :: 8.1
2) CCCN(CCC)[C@@H]1CCc2ccc3[nH]c(C#N)cc3c2C1 [U-92,016-A] :: 63
3) CN(C)[C@@H]1CCc2ccc3[nH]ccc3c2C1 :: 46
4) CN(C)[C@H]1CCc2ccc3[nH]ccc3c2C1 :: 72

----------
System: Rattus norvegicus
Assay: In vivo for 5-HTP accumulation in hemispheres (cortex) against reserpine-pretreated rats.
Assay type: functional
Measured ED50, listed per entry for reference.
quantity: ED50 (µmol/kg)

1) CCCN(CCC)C1CCc2ccc3[nH]ccc3c2C1 (stereo not drawn) :: 0.17
2) CCCN(CCC)C1CCc2cc(F)c3[nH]ccc3c2C1 (stereo not drawn) :: 0.54
3) CCCN(CCC)C1CCc2cc(F)c3[nH]cc(C#N)c3c2C1 (stereo not drawn) :: 0.46

----------
Target: 5-hydroxytryptamine receptor 1B (Homo sapiens)
Sequence (P28222 whole entry): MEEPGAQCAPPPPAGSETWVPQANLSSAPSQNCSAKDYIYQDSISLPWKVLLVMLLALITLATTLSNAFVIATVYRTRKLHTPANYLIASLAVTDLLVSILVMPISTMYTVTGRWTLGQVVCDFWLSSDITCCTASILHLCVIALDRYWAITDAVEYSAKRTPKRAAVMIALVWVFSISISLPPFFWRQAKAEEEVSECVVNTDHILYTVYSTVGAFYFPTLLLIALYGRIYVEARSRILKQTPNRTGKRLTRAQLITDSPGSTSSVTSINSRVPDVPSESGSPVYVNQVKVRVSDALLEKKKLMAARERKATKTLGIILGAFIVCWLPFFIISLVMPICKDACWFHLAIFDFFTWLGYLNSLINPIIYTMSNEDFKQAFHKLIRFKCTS
Assay: Binding affinity against 5-hydroxytryptamine 1D receptor beta expressed in CHO-K1 cells, using [3H]5-HT as the radioligand.
Type: cell-based
Settings: read-out: Ki
Measured Ki, listed per entry for reference.
quantity: Ki (nM)

1. CCCN(CCC)C1CCc2ccc3c(c2C1)CC(=O)N3 (stereo not drawn) :: 194
2. CCCN(CCC)C1CCc2ccc3[nH]cc(C(C)=O)c3c2C1 (stereo not drawn) :: 587
3. CCCN(CCC)[C@H]1CCc2ccc3[nH]cc(C(=O)C(N)=O)c3c2C1 :: 1100

----------
Measured pKi, listed per entry for reference.
Molecular target: 5-hydroxytryptamine receptor 1A (Rattus norvegicus)
Sequence (P19327 whole entry): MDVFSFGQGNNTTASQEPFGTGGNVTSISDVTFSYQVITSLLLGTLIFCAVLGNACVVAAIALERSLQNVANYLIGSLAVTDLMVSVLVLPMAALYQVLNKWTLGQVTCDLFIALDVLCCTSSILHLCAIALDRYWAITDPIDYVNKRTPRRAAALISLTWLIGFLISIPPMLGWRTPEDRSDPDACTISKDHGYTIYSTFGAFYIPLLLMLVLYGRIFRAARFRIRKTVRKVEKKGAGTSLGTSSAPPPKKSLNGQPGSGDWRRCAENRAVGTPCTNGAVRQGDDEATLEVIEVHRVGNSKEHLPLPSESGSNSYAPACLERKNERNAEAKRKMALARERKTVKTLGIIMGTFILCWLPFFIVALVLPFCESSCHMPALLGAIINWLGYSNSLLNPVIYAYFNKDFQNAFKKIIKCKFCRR
pKi: −log10 of the molar value.
quantity: pKi

1) CCCN(CCC)C1CCc2cc(F)c3[nH]cc(C#N)c3c2C1 (stereo not drawn) :: 8.64
2) CCCN(CCC)[C@H]1CCc2cc(F)c3[nH]ccc3c2C1 :: 8.43
3) CCCN(CCC)C1CCc2cc(F)c3[nH]cc(C=O)c3c2C1 (stereo not drawn) :: 9.30

Every entry's value here was drawn from ChEMBL document CHEMBL1128401.
